Exercise: for every item that follows, state its recorded IC50.
- target desc: NAD-dependent protein deacetylase sirtuin-1 (Homo sapiens, UniProt Q96EB6)
- Sequence (Q96EB6 whole entry): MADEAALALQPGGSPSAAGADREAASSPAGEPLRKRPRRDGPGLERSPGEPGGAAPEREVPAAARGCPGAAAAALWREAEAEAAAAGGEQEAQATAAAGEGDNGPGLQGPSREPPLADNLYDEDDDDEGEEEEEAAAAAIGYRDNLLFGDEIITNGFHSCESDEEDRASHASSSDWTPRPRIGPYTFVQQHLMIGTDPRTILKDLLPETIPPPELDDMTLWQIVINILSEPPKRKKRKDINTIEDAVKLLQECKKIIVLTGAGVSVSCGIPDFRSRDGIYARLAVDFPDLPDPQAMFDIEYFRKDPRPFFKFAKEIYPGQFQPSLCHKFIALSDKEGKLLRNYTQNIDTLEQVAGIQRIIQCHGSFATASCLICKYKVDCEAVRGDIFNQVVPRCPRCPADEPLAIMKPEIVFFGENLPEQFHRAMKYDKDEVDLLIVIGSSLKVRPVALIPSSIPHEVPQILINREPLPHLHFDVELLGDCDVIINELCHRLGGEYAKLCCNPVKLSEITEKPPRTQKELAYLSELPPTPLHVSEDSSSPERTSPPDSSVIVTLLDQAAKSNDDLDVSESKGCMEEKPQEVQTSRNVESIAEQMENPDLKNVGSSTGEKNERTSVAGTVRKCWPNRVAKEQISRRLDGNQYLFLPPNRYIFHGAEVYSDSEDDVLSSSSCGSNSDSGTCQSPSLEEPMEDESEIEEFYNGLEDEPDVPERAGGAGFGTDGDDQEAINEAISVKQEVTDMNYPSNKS
- method notes: Inhibition of C-terminal His-6-tagged recombinant human SIRT1 expressed in Escherichia coli BL21(DE3) by luminescence assay
Value expressed in µM; do not type the unit.

What value of IC50 has been reported for the following compound? `Cc1ccc(-c2[nH][nH]c(=O)c2Cc2c(O)ccc3cc(-c4ccccc4)ccc23)cc1`
41

Item `COc1cc2ccccc2c(Cc2c(-c3ccc(C)cc3)[nH][nH]c2=O)c1O` has what recorded IC50?
26

I have this compound here, `Cc1ccc(-c2[nH][nH]c(=O)c2Cc2c(O)ccc3cc(Br)ccc23)cc1` , and I need its recorded IC50.
37

May I ask what IC50 has been recorded for `CC(C)c1ccc(-c2[nH][nH]c(=O)c2Cc2c(O)ccc3nc(Cl)ccc23)cc1` ?
21
